Molecular target: mouse melanocortin-3 receptor (mouse, UniProt P33033 1-323)
Sequence (P33033 whole entry): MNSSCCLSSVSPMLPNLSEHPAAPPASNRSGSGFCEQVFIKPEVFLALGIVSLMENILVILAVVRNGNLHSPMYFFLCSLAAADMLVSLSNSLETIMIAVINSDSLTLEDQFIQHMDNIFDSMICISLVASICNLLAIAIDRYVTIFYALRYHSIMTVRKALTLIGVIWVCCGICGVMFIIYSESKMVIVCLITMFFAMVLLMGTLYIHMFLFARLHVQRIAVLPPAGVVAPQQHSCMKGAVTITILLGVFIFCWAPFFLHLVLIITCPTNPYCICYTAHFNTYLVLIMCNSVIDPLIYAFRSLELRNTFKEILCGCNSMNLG
Assay: cell-based or functional assay
Bridges are numbered along the chain shown (N, C = ends). Where no end group is shown, it is not given here. [ ]: non-standard residue; d: D form. Nle = CCCC[C@H](N)C(=O)O; Dap = NC[C@H](N)C(=O)O
PARAMETER: EC50 (agonist) (nM)

>  <BINDER>
YDHPRWNAF[Dap]Y-NH2 (lactam 2-10; N-terminus assumed; SMILES C[C@@H]1NC(=O)[C@H](CC(N)=O)NC(=O)[C@H](Cc2c[nH]c3ccccc23)NC(=O)[C@H](CCCNC(=N)N)NC(=O)[C@@H]2CCCN2C(=O)[C@H](Cc2c[nH]cn2)NC(=O)[C@@H](NC(=O)[C@@H](N)Cc2ccc(O)cc2)CC(=O)NC[C@@H](C(=O)N[C@@H](Cc2ccc(O)cc2)C(N)=O)NC(=O)[C@H](Cc2ccccc2)NC1=O) [SEQ ID NO:31 (Tyr-c[Asp-His-Pro-Arg-Trp-Asn-Ala-Phe-Dpr]-Tyr)]

>  <PARAMETER>
EC50 (agonist)

>  <U>
nM

>  <NUMBER>
13200

$$$$
>  <BINDER>
YDHXRXNAFXY (Asp-Dpr side chain lactam bridge; Dpr; DPhe; DNal(2′); C-terminal amide (amide resin)) [SEQ ID NO:40 (Tyr-c[Asp-His-DPhe-Arg-DNal(2′)-Asn-Ala-Phe-Dpr]-Tyr)]

>  <PARAMETER>
EC50 (agonist)

>  <U>
nM

>  <NUMBER>
6.5

$$$$
>  <BINDER>
Ac-SYS[Nle]EHRFFGKPV-NH2 [SEQ ID NO:15 (Ac-Ser-Tyr-Ser-Nle-Glu-His-Arg-Phe-Phe-Gly-Lys-Pro-Val)]

>  <PARAMETER>
EC50 (agonist)

>  <U>
nM

>  <NUMBER>
480

$$$$

Reference source: patent US7084111
